Test system: IFNγ-induced NO production in RAW264.7 macrophages
TEST_NAME: Suppression of IFNγ-induced NO production (Griess reagent)
Assay type: cell-based, mouse
STATED_CONDITIONS: Mus musculus; RAW264.7, 20 ng/ml IFNγ for 24 hours, 2 hours pre-treatment
Protocol: FIGS. 1-11 and 22. Inhibition of NO Production. RAW264.7 macrophages were pre-treated with DMSO or drugs at various concentrations (nM) for 2 hours, then treated with 20 ng/ml IFNγ for 24 hours. NO concentration in media was determined using a Griess reagent system; cell viability was determined using WST-1 reagent. Nitric Oxide production and cell viability. […] NO concentration in media was determined using the Griess reagent system (Promega). Cell viability was determined using WST-1 reagent (Roche).
QUANTITY_NAME: pIC50
pIC50 here is simply -log10 of the concentration when that concentration is written in mol/L.

Below, 3 molecules whose answers are already recorded.
{"columns": ["MOLECULE", "pIC50"],
 "data": [
  ["CC1(C)CC[C@]2(C(=O)NCCO)CC[C@]3(C)[C@H](C(=O)C=C4[C@@]5(C)C=C(C#N)C(=O)C(C)(C)[C@@H]5CC[C@]43C)[C@@H]2C1 [Compound 402-40]", 7.77],
  ["CC1(C)CC[C@]2(C(=O)NO)CC[C@]3(C)[C@H](C(=O)C=C4[C@@]5(C)C=C(C#N)C(=O)C(C)(C)[C@@H]5CC[C@]43C)[C@@H]2C1 [Compound 402-09]", 8.38],
  ["CC1(C)CC[C@]2(C(=O)N=[N+]=[N-])CC[C@]3(C)[C@H](C(=O)C=C4[C@@]5(C)C=C(C#N)C(=O)C(C)(C)[C@@H]5CC[C@]43C)[C@@H]2C1 [Compound 402-11]", 8.60]
]}

State, for IFNγ-induced NO production in RAW264.7 macrophages, measured pIC50 of the molecule listed here: CONC(=O)[C@]12CCC(C)(C)C[C@H]1[C@H]1C(=O)C=C3[C@@]4(C)C=C(C#N)C(=O)C(C)(C)[C@@H]4CC[C@@]3(C)[C@]1(C)CC2 [Compound 402-10]
8.64

* * *

Test system: IFNγ-induced NO production in RAW264.7 macrophages
TEST_NAME: Suppression of IFNγ-induced NO production (Griess reagent)
Type: cell-based, mouse
STATED_CONDITIONS: Mus musculus; RAW264.7, 20 ng/ml IFNγ for 24 hours, 2 hours pre-treatment
Method: FIGS. 1-11 and 22. Inhibition of NO Production. RAW264.7 macrophages were pre-treated with DMSO or drugs at various concentrations (nM) for 2 hours, then treated with 20 ng/ml IFNγ for 24 hours. NO concentration in media was determined using a Griess reagent system; cell viability was determined using WST-1 reagent. Nitric Oxide production and cell viability. […] NO concentration in media was determined using the Griess reagent system (Promega). Cell viability was determined using WST-1 reagent (Roche).
QUANTITY_NAME: IC50

Below, 4 compounds whose answers are already recorded.
{"columns": ["SMILES_ENTRY", "IC50"],
 "data": [
  ["COC(=O)[C@]12CCC(C)(C)C[C@H]1[C@H]1C(=O)C=C3[C@@]4(C)C=C(C(=O)NO)C(=O)C(C)(C)[C@@H]4CC[C@@]3(C)[C@]1(C)CC2", "> 200 nM"],
  ["CC1(C)CC[C@]2(C(=O)F)CC[C@]3(C)[C@H](C(=O)C=C4[C@@]5(C)C=C(C#N)C(=O)C(C)(C)[C@@H]5CC[C@]43C)[C@@H]2C1", "~3 nM"],
  ["COC(=O)[C@]12CCC(C)(C)C[C@H]1[C@H]1C(=O)C=C3[C@@]4(C)C=C(C#N)C(=O)C(C)(C)[C@@H]4[C@H](O)C[C@@]3(C)[C@]1(C)CC2", "~60 nM"],
  ["COC(=O)[C@]12CCC(C)(C)C[C@H]1[C@H]1C(=O)C=C3[C@@]4(C)C(C)=C(C#N)C(=O)C(C)(C)[C@@H]4CC[C@@]3(C)[C@]1(C)CC2", "> 200 nM"]
]}

Pending compound:
Answer with reported IC50 of COC(=O)[C@]12CCC(C)(C)C[C@H]1[C@H]1C(=O)C=C3[C@@]4(C)C=C(c5nnn[nH]5)C(=O)C(C)(C)[C@@H]4CC[C@@]3(C)[C@]1(C)CC2
> 200 nM
